# study_target: T1, AFP158/HLA-A*02:01 complex (human)
# T1 construct: flowed as analyte in SPR
# test: SPR, crude scFv captured, pMHC analyte;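 note: Peptide-MHC complex at several concentrations passed over captured scFv, association then buffer-driven dissociation, on- and off-rates fitted from the curves and KD estimated from them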
reported_endpoint: Kd (nM)
Return type: number; implicit unit nM.

Worked examples follow.
# binder, reported_endpoint, units_symbol, recorded_value
measured = [
    ("AS170036 VL1VH1-VHG56Y (scFv) scFv: QSALTQPRSVSGSPGQSVTISCAGTSSDVGSENYVSWYQQHPGKAPKLMIYQVNKRASGVPDRFSGSKSGNTASLTISGLQAEDEADYYCASYRSSDHNIVFGGGTKLTVLGGGGSGGGGSGGGGSEVQLVESGGGLVQPGGSLRLSCAASGFTFSSYAMSWVRQAPGKGLEWVSTINSGTYSPYYADSVKGRFTISRDNSKNTLYLQMNSLRAEDTAVYYCAKNFFDGSWFLGPPAMDYWGQGTLVTVSSHHHHHH", "Kd", "nM", 35),
    ("AS170036 VL1VH1-VHS57M (scFv) scFv: QSALTQPRSVSGSPGQSVTISCAGTSSDVGSENYVSWYQQHPGKAPKLMIYQVNKRASGVPDRFSGSKSGNTASLTISGLQAEDEADYYCASYRSSDHNIVFGGGTKLTVLGGGGSGGGGSGGGGSEVQLVESGGGLVQPGGSLRLSCAASGFTFSSYAMSWVRQAPGKGLEWVSTINSGTGMPYYADSVKGRFTISRDNSKNTLYLQMNSLRAEDTAVYYCAKNFFDGSWFLGPPAMDYWGQGTLVTVSSHHHHHH", "Kd", "nM", 90),
    ("AS170036 VL1VH1-VLH98T (scFv) scFv: QSALTQPRSVSGSPGQSVTISCAGTSSDVGSENYVSWYQQHPGKAPKLMIYQVNKRASGVPDRFSGSKSGNTASLTISGLQAEDEADYYCASYRSSDTNIVFGGGTKLTVLGGGGSGGGGSGGGGSEVQLVESGGGLVQPGGSLRLSCAASGFTFSSYAMSWVRQAPGKGLEWVSTINSGTGSPYYADSVKGRFTISRDNSKNTLYLQMNSLRAEDTAVYYCAKNFFDGSWFLGPPAMDYWGQGTLVTVSSHHHHHH", "Kd", "nM", 84),
    ("AS170036 VL1VH1-VHS57K (scFv) scFv: QSALTQPRSVSGSPGQSVTISCAGTSSDVGSENYVSWYQQHPGKAPKLMIYQVNKRASGVPDRFSGSKSGNTASLTISGLQAEDEADYYCASYRSSDHNIVFGGGTKLTVLGGGGSGGGGSGGGGSEVQLVESGGGLVQPGGSLRLSCAASGFTFSSYAMSWVRQAPGKGLEWVSTINSGTGKPYYADSVKGRFTISRDNSKNTLYLQMNSLRAEDTAVYYCAKNFFDGSWFLGPPAMDYWGQGTLVTVSSHHHHHH", "Kd", "nM", 56),
]

Record request: Kd value, item AS170036 VL1VH1-VLH98Q (scFv) scFv: QSALTQPRSVSGSPGQSVTISCAGTSSDVGSENYVSWYQQHPGKAPKLMIYQVNKRASGVPDRFSGSKSGNTASLTISGLQAEDEADYYCASYRSSDQNIVFGGGTKLTVLGGGGSGGGGSGGGGSEVQLVESGGGLVQPGGSLRLSCAASGFTFSSYAMSWVRQAPGKGLEWVSTINSGTGSPYYADSVKGRFTISRDNSKNTLYLQMNSLRAEDTAVYYCAKNFFDGSWFLGPPAMDYWGQGTLVTVSSHHHHHH 75
